- protocol.description: Efflux ratio of permeability in human Caco2 cells
- Format: ADME, cell-based
- condition.summary: Caco-2
Collected efflux ratio values appear next to each entry.
assay.endpoint: efflux ratio

>>> df
                                 smiles_str  assay_endpoint  numeric_result
0  O=C(CCc1nc2ccccc2c(=O)[nH]1)N1CCN(C(=O)c2cccs2)CC1    efflux ratio             5.8
1  O=C(CCc1nc2ccccc2c(=O)[nH]1)N1CCN(C(=O)c2ccc(F)cc2)CC1    efflux ratio               6

* * *

- experimental.target: Poly [ADP-ribose] polymerase 1 (Homo sapiens)
- protocol.description: Inhibition of PARP-1-mediated PARylation in H2O2-induced human HeLa cells preincubated for 3 hrs followed by H2O2 addition measured after 5 mins by Draq5 staining-based fluorescence assay
assay.endpoint: EC50 (nM)

>>> print(df.to_string())
                                 smiles_str                       experimental_target  numeric_result
0  O=C(CCc1nc2ccccc2c(=O)[nH]1)N1CCN(C(=O)c2ccc[nH]2)CC1  Poly [ADP-ribose] polymerase 1 (Homo sapiens)             865
1  O=C(CCc1nc2ccccc2c(=O)[nH]1)N1CCN(C(=O)c2cccs2)CC1  Poly [ADP-ribose] polymerase 1 (Homo sapiens)             256
2  O=C(CCc1nc2ccccc2c(=O)[nH]1)N1CCN(C(=O)c2ccc(F)cc2)CC1  Poly [ADP-ribose] polymerase 1 (Homo sapiens)             467
3  O=C(CCc1nc2ccccc2c(=O)[nH]1)N1CCN(C(=O)C2CC2)CC1  Poly [ADP-ribose] polymerase 1 (Homo sapiens)             707

* * *

Readings of blood plasma ratio at 1 h for the listed compounds
- protocol.description: Ratio of drug level in blood to plasma (unknown origin) after 60 mins
- Type: ADME
- condition.summary: blood and plasma
assay.endpoint: blood plasma ratio at 1 h

                                 smiles_str  numeric_result
0  O=C(CCc1nc2ccccc2c(=O)[nH]1)N1CCN(C(=O)c2cccs2)CC1             0.4
1  O=C(CCc1nc2ccccc2c(=O)[nH]1)N1CCN(C(=O)c2ccc(F)cc2)CC1             0.4

* * *

- experimental.target: Poly [ADP-ribose] polymerase 1 (Homo sapiens, UniProt P09874)
- Sequence (P09874 whole entry): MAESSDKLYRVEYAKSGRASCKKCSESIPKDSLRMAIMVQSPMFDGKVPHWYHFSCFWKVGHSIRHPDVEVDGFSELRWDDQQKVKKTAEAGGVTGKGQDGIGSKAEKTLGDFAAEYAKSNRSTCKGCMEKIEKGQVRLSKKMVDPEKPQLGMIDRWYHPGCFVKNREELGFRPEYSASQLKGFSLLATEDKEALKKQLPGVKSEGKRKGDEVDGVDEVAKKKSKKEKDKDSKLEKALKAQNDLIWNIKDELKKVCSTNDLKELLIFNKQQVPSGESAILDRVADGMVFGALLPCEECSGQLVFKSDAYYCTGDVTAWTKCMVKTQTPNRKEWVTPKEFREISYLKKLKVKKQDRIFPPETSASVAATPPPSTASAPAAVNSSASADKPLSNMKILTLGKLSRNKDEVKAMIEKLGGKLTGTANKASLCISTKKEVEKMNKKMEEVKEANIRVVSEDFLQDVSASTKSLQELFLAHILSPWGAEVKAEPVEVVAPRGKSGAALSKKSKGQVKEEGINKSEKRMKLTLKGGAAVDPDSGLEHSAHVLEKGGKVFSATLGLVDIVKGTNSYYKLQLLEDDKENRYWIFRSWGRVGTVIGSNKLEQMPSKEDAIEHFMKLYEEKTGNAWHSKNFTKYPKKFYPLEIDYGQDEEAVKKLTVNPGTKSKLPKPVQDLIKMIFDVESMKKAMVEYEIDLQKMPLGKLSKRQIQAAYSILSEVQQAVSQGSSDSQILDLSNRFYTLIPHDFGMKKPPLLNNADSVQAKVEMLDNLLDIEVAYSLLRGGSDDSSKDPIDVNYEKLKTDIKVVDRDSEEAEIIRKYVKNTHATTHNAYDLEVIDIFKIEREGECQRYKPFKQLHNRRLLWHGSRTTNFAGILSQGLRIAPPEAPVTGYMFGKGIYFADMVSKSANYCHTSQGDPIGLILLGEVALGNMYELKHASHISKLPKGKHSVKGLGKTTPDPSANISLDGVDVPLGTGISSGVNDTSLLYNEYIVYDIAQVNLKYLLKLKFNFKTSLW
- protocol.description: Inhibition of GST-tagged recombinant human PARP-1 expressed in Escherichia coli after 30 mins by fluorescence-based assay
pIC50: −log10 of the molar value.
Where pIC50 equals or exceeds 6, the correct label is label 1; where it does not, the label is label 0.

>>> df
                                   compound                       experimental_target  assigned_class
0  Cc1ccc(NC(=O)CCn2c(=O)[nH]c(=O)c3ccccc32)c(O)c1  Poly [ADP-ribose] polymerase 1 (Homo sapiens, UniProt P09874)         label 1
1  O=C(CCc1nc2ccccc2c(=O)[nH]1)N1CCN(C(=O)c2ccc(F)cc2)CC1  Poly [ADP-ribose] polymerase 1 (Homo sapiens, UniProt P09874)         label 1
2  O=C(Cc1n[nH]c(=O)c2ccccc12)NCc1ccc(S(=O)(=O)N2CCOCC2)cc1  Poly [ADP-ribose] polymerase 1 (Homo sapiens, UniProt P09874)         label 1
3  O=C(CCc1nc2ccccc2c(=O)[nH]1)N1CCN(C(=O)C2CC2)CC1  Poly [ADP-ribose] polymerase 1 (Homo sapiens, UniProt P09874)         label 1
4  NC(=O)c1ccc(NC(=O)CCCc2nc3ccccc3c(=O)[nH]2)cc1  Poly [ADP-ribose] polymerase 1 (Homo sapiens, UniProt P09874)         label 0
5  CC(=O)c1ccc(NC(=O)CCn2c(=O)[nH]c(=O)c3ccccc32)cc1  Poly [ADP-ribose] polymerase 1 (Homo sapiens, UniProt P09874)         label 1
6  CC(=O)c1ccc(N2CCN(C(=O)COc3ccccc3C(N)=O)CC2)c(F)c1  Poly [ADP-ribose] polymerase 1 (Homo sapiens, UniProt P09874)         label 1
7  O=C(Cc1n[nH]c(=O)c2ccccc12)NCC(c1ccccc1Cl)N1CCCC1 (stereo not given)  Poly [ADP-ribose] polymerase 1 (Homo sapiens, UniProt P09874)         label 0
